- target of assay: BRD4 bromodomains (Homo sapiens)
- Construct: fused on or other part: T7 phage capsid protein (phage-display fusion; the phage DNA is read out by qPCR)
- assay explanation: BROMOscan bromodomain competition binding assay (DiscoveRx)
- measurement context: Kd from 11 compound concentrations ranging from 0 to 10 μM, read-out: BROMOscan Relative Activity
Parameter: Kd. Scope: all listed entries.

So what's the measured Kd for this one? `Cc1noc(C)c1-c1ccc2nc(-c3cnn(CC(N)=O)c3)nc(NCc3cncc(Cl)c3)c2c1`
< 500 nM

So what's the measured Kd for this one? `Cc1noc(C)c1-c1ccc2nc(C(=O)N[C@H]3CC[C@H](O)CC3)nc(N3CCOC[C@@H]3c3ccccc3)c2c1`
< 500 nM

So what's the measured Kd for this one? `CNc1nc(NCc2cccc(Cl)c2)c2cc(-c3c(C)noc3C)ccc2n1`
500 to 5000 nM

So what's the measured Kd for this one? `Cc1noc(C)c1-c1ccc2nc(N3CCc4c(cnn4C)C3)nc(N3CCOC[C@@H]3c3ccccc3)c2c1`
< 500 nM
